Target: T1, recombinant human LTBP3-proTGFβ1 complex (Homo sapiens, UniProt P01137)
T1 construct: made in house; host or cells: Expi293F cells, transient co-transfection
T1 sequence (P01137 30-390): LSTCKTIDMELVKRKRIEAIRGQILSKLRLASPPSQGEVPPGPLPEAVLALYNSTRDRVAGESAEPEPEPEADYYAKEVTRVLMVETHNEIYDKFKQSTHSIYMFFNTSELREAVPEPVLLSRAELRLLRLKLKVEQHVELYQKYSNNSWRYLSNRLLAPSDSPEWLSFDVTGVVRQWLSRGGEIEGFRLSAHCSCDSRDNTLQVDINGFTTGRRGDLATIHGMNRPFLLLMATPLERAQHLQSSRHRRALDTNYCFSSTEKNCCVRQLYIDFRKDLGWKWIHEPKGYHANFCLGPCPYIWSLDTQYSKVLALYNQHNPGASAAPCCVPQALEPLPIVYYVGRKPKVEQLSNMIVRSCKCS
T1 sequence (Q9NS15 866-1039 partner limits assumed): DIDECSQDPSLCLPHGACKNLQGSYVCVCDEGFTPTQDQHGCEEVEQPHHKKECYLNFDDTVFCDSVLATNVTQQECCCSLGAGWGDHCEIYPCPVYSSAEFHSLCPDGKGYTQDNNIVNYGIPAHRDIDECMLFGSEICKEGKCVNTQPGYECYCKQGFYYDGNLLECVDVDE
Test: Octet (Biolayer Interferometry) in vitro kinetic binding
Conditions: in M
# maps each entry to its (C) hLTBP3, Matrix-associated proTGFb1 (KD)
# output: bare number, no unit

Worked examples, 3 molecules total:
[
  {
    "molecule": "Ab19: monoclonal antibody; VH SEQ ID NO: 250, VL SEQ ID NO: 241 (antibody, V domains shown) VH: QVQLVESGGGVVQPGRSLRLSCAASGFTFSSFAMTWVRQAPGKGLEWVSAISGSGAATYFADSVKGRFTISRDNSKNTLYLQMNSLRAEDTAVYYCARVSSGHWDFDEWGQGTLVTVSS VL: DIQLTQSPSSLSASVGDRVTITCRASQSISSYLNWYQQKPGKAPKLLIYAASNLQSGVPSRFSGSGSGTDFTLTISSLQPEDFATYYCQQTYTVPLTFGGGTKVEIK",
    "reported-measurement": "1.56E−10"
  },
  {
    "molecule": "Ab30: monoclonal antibody; VH SEQ ID NO: 138, VL SEQ ID NO: 15 (antibody, V domains shown) VH: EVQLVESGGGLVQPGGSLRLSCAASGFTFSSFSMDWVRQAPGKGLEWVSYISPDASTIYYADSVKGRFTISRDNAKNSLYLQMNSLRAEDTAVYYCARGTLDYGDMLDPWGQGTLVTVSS VL: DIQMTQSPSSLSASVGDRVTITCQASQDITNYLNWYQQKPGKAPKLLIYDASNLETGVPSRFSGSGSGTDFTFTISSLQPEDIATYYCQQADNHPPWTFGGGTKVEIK",
    "reported-measurement": "2.61E−10"
  },
  {
    "molecule": "Ab22: monoclonal antibody; VH SEQ ID NO: 130, VL SEQ ID NO: 15 (antibody, V domains shown) VH: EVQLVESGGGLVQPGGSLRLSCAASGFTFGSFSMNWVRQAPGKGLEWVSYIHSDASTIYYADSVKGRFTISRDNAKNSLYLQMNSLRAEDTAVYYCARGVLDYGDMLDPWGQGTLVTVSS VL: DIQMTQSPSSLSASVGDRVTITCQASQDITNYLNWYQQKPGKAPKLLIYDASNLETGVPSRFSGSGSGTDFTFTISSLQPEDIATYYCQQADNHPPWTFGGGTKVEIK",
    "reported-measurement": "3.29E−10"
  }
]

// (C) hLTBP3, Matrix-associated proTGFb1 (KD) value for Ab13: monoclonal antibody; VH SEQ ID NO: 242, VL SEQ ID NO: 243 (antibody, V domains shown) VH: EVQLLESGGGLVQPGGSLRLSCAASGFTFADYAMTWVRQAPGKGLEWVSAISSFASAIYYADSVKGRFTISRDNSKNTLYLQMNSLRAEDTAVYYCARVSSGHWDFDYWGQGTLVTVSS VL: DIQMTQSPSSLSASVGDRVTITCRASQSISSYLNWYQQKPGKAPKLLIYAASSLQSGVPSRFSGSGSGTDFTLTISSLQPEDFATYYCQQVYDPPLTFGGGTKVEIK : 2.49E−10

// (C) hLTBP3, Matrix-associated proTGFb1 (KD) value for Ab14: monoclonal antibody; VH SEQ ID NO: 244, VL SEQ ID NO: 243 (antibody, V domains shown) VH: EVQLLESGGGLVQPGGSLRLSCAASGFTFSAYAMTWVRQAPGKGLEWVSAISGTGGSTYYADSVKGRFTISRDNSKNTLYLQMNSLRAEDTAVYYCARVSSGHWDFDYWGQGTLVTVSS VL: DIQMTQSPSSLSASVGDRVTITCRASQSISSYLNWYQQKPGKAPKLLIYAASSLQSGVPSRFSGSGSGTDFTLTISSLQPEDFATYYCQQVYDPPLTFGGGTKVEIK : 3.46E−10

// (C) hLTBP3, Matrix-associated proTGFb1 (KD) value for Ab18: monoclonal antibody; VH SEQ ID NO: 249, VL SEQ ID NO: 241 (antibody, V domains shown) VH: QVQLVESGGGVVQPGRSLRLSCAASGFTFSDYAMVWVRQAPGKGLEWVSAISGSGAATYFADSVKGRFTISRDNSKNTLYLQMNSLRAEDTAVYYCATVSSGHWDFDYWGQGTLVTVSS VL: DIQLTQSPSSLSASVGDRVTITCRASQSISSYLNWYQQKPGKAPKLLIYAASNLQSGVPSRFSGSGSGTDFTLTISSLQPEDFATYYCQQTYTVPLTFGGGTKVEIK : 2.57E−10

// (C) hLTBP3, Matrix-associated proTGFb1 (KD) value for Ab20: monoclonal antibody; VH SEQ ID NO: 251, VL SEQ ID NO: 241 (antibody, V domains shown) VH: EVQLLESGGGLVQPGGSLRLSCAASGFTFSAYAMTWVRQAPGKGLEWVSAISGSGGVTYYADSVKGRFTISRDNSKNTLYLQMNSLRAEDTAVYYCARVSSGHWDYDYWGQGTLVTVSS VL: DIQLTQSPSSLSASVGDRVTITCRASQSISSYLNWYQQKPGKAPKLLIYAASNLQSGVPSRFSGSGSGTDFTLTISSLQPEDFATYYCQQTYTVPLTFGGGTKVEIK : 1.31E−10

// (C) hLTBP3, Matrix-associated proTGFb1 (KD) value for Ab23: monoclonal antibody; VH SEQ ID NO: 131, VL SEQ ID NO: 15 (antibody, V domains shown) VH: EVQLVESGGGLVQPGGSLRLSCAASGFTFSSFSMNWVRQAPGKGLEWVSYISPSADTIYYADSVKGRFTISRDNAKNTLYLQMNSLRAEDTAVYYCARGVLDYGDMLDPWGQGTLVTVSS VL: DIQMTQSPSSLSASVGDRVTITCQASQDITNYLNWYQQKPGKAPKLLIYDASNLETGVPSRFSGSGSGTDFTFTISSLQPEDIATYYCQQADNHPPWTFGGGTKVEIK : 4.68E−10

// (C) hLTBP3, Matrix-associated proTGFb1 (KD) value for Ab11: monoclonal antibody; VH SEQ ID NO: 239, VL SEQ ID NO: 241 (antibody, V domains shown) VH: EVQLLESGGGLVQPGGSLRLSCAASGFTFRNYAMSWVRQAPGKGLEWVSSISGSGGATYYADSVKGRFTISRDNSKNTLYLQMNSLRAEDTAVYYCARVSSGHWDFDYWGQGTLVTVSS VL: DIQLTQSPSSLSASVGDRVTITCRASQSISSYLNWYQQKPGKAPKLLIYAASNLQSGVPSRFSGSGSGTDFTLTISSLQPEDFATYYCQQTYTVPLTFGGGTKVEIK : 1.54E−10
